Test system: K-562 leukemia
Test: NCI-60 one-dose screen, 48 h (100 = growth as untreated, 0 = no growth, -100 = all killed)
Conditions: 10 µM unless noted
This is part of a sample that, as a whole, favours compounds with a hit. Of some 83,000 tested, about 20% had one in any assay.
QUANTITY MEASURED: growth (%)

>>> measured_number("COc1nc2ccccc2cc1-c1nc2c(cnn2-c2ccccc2)c(=O)[nH]1")
16.7
>>> measured_number("COc1cccc(/C=C2\\C=C(c3ccccc3)N(Cc3ccccc3)C2=O)c1")
36.1
>>> measured_number("CN(C)CCN1CCN(c2ncccc2C2Nc3ccccc3-n3cccc32)CC1 (stereo not drawn)")
89.4
>>> measured_number("CC(=O)CC[C@H]1C(=O)N[C@@H](C(C)C)C(=O)N[C@@H](Cc2cc(O)cc(F)c2)C(=O)N2CCC[C@H](N2)C(=O)O[C@H](/C(C)=C/C=C/C(=O)OC(C)(C)C)C/C=C/C=C/[C@H](O)[C@H](C)[C@H]1O")
21.6
>>> measured_number("CCCCC[C@H](O)C/C=C1/C(=O)C=C[C@@H]1C/C=C\\CCCC(=O)OC")
5.84
>>> measured_number("CCCCCCCCCCCCCCCCCCOc1ccc(CC(=O)OCC[N+](C)(C)C)cc1")
47.7
>>> measured_number("COc1ccc(-c2nc(NN)c3c(C)nn(-c4ccc(F)cc4)c3n2)cc1")
17.8
>>> measured_number("Cc1ccc(C(CC(=O)O)c2c(C)[nH][nH]c2=O)cc1 (stereo not drawn)")
90.8
>>> measured_number("O=c1ccc(N=Nc2ccccc2)ccc1Cl")
0.344
>>> measured_number("c1ccc2cc(C[n+]3ccn(CCCCCCCCCCCCn4cc[n+](Cc5ccc6ccccc6c5)c4)c3)ccc2c1")
-59
>>> measured_number("COc1ccc(-c2cc(-c3ccc(Cl)cc3)c(C#N)c(=O)n2CCCCCC(=O)Nc2ccccc2N)cc1")
15
>>> measured_number("COc1cc(CCC[P+](c2ccccc2)(c2ccccc2)c2ccccc2)c(OC)c(OC)c1OC")
39.8
>>> measured_number("CN1CCN(Cc2ccc(NC(=O)c3cncc(C#Cc4cnccc4C#N)c3)cc2C(F)(F)F)CC1")
8.21
>>> measured_number("CC(=O)OC[C@H]1OC(Sc2sc(C(=O)c3ccc(Br)cc3)c(N)c2-c2nc3ccccc3s2)[C@H](OC(C)=O)[C@@H](OC(C)=O)[C@H]1OC(C)=O (stereo partly drawn)")
92.2
>>> measured_number("COc1ccc2sc3c(NCCCNCCO)nc4ccccc4c3c(=O)c2c1")
-28.2
>>> measured_number("COc1cc(-c2nc3sccn3c2-c2ccnc(NCCCNS(=O)(=O)c3ccc(F)cc3)n2)ccc1F")
38.2
>>> measured_number("c1cc(-c2nnc(SSc3ncnc4nc[nH]c34)o2)ccn1")
17
>>> measured_number("C=C1C(=O)O[C@H]2[C@H]1CC/C(COC(=O)NCCOCCOCC(=O)Nc1ccc(OC)c(C(N)=O)c1O)=C\\CC[C@@]1(C)O[C@@H]21")
25.6
